- System: LAPC4 prostate cancer cells, which express the AKT1 E17K allele
- procedure_text: Antiproliferative effects in LAPC4 cells (CellTiter Glo, 72 h)
- Assay type: cell-based
- condition_set: Homo sapiens, LAPC4, 72 h, read-out: LAPC4 proliferation IC50: GeoMean IC50
Consider the following compounds; for each one, report its IC50.

The reported IC50 value, LAPC4 prostate cancer cells, which express the AKT1 E17K allele, for Cc1csc(-c2ccc3nc(-c4cccnc4N)n(-c4ccc5c(c4)CC[C@@H]5NC(=O)c4ccc(O)c(C=O)c4)c3n2)n1 [Example 133] reads 10 to 100 nM

Record for Cc1cc(-c2nccs2)nc2c1nc(-c1cccnc1N)n2-c1ccc2c(c1)CC[C@@H]2NC(=O)c1ccc(O)c(C=O)c1 [Example 180] under target or system LAPC4 prostate cancer cells, which express the AKT1 E17K allele: IC50 reported as 10 to 100 nM

Entry Nc1ncccc1-c1nc2ccc(-c3cnccn3)nc2n1-c1ccc2c(c1)CC[C@@H]2NC(=O)c1ccc(O)c(C=O)c1 [Example 29] : IC50 on LAPC4 prostate cancer cells, which express the AKT1 E17K allele = 10 to 100 nM

Considering Nc1ncccc1-c1nc2ccc(-c3nccs3)nc2n1-c1ccc2c(c1)CC[C@@H]2NC(=O)c1cc(C=O)c(O)cc1F [Example 144] , its IC50 with LAPC4 prostate cancer cells, which express the AKT1 E17K allele was recorded as 10 to 100 nM

Simply: Nc1ncccc1-c1nc2ccc(-c3cnccn3)nc2n1-c1ccc2c(c1)CC[C@@H]2NC(=O)c1cc(C=O)c2[nH]ncc2c1 [Example 73] , LAPC4 prostate cancer cells, which express the AKT1 E17K allele, IC50 = 10 to 100 nM

The value of IC50 recorded for Cc1nnc(-c2ccc3nc(-c4cccnc4N)n(-c4ccc5c(c4)CC[C@@H]5NC(=O)c4ccc(O)c(C=O)c4)c3n2)s1 [Example 203] when tested on LAPC4 prostate cancer cells, which express the AKT1 E17K allele reads 100 to 2000 nM

Case Nc1ncccc1-c1nc2ccc(-c3nccnc3F)nc2n1-c1ccc2c(c1)CC[C@@H]2NC(=O)c1ccc(O)c(C=O)c1 [Example 109] , LAPC4 prostate cancer cells, which express the AKT1 E17K allele, IC50 recorded as 100 to 2000 nM

The reported LAPC4 prostate cancer cells, which express the AKT1 E17K allele IC50 of Nc1ncccc1-c1nc2ccc(-c3ccccc3)nc2n1-c1ccc2c(c1)CC[C@@H]2NC(=O)c1ccc(O)c(C=O)n1 [Example 89] is 100 to 2000 nM

Entry Nc1ncccc1-c1nc2ccc(-n3cccn3)nc2n1-c1ccc2c(c1)CC(F)[C@@H]2NC(=O)c1cc(C=O)c(O)cc1F (single isomer, unassigned) [Example 258] , LAPC4 prostate cancer cells, which express the AKT1 E17K allele data, IC50 value: 10 to 100 nM

Known value: LAPC4 prostate cancer cells, which express the AKT1 E17K allele IC50 of the compound Cc1nc2cc(O)c(C=O)cc2c(=O)n1[C@H]1CCc2cc(-n3c(-c4cccnc4N)nc4ccc(-n5cccn5)nc43)ccc21 [Example 249] equals ≥ 2000 nM

Bench note, LAPC4 prostate cancer cells, which express the AKT1 E17K allele: Nc1ncccc1-c1nc2ccc(-c3ncc(C(F)F)s3)nc2n1-c1ccc2c(c1)CC[C@@H]2NC(=O)c1ccc(O)c(C=O)c1 [Example 146] , IC50 reads 100 to 2000 nM

So the reported IC50 for CC1(NC(=O)c2ccc(O)c(C=O)c2)CCc2cc(-n3c(-c4cccnc4N)nc4ccc(-n5cccn5)nc43)ccc21 (stereo not shown) [Example 219] , on LAPC4 prostate cancer cells, which express the AKT1 E17K allele, turned out to be ≥ 2000 nM

Lab note: compound COc1cc(C(=O)N[C@H]2CCc3cc(-n4c(-c5cccnc5N)nc5ccc(-c6ccccc6)nc54)ccc32)cc(C=O)c1O [Example 36] tested on LAPC4 prostate cancer cells, which express the AKT1 E17K allele; recorded IC50 was 100 to 2000 nM

---

- target_desc: AKT2 (Homo sapiens, UniProt P31751)
- Construct: expressed in transfected cells; host or cells: HEK293
- Sequence (P31751 whole entry): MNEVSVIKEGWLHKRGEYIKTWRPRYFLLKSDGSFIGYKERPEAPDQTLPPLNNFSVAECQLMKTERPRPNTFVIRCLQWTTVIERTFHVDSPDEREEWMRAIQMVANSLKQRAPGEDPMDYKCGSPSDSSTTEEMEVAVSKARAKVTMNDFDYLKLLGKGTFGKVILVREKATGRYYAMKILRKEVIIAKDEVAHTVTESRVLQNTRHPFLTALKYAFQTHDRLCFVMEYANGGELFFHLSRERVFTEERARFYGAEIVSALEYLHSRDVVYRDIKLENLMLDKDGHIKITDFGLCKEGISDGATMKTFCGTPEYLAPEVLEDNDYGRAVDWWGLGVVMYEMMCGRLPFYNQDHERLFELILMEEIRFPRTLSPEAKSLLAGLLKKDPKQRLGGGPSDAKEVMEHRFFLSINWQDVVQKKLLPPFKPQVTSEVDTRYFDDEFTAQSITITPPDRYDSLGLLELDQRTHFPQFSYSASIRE
- procedure_text: Live cell target engagement by NanoBRET competitive probe displacement, AKT2
- Assay type: binding
- condition_set: transfected HEK293 cells, 2 h at 37° C., read-out: AKT2 IC50: GeoMean IC50
pIC50: −log10 of the molar value.
quantity: pIC50

According to the records, this compound Nc1ncccc1-c1nc2ccc(-c3ccn(C4CC4)n3)nc2n1-c1ccc2c(c1)CC[C@@H]2NC(=O)c1cc(C=O)c(O)cc1F displays pIC50 of 5.70 to 7.00

Per the record, COc1cnn(-c2ccc3nc(-c4cccnc4N)n(-c4ccc5c(c4)CC[C@@H]5NC(=O)c4ccc(O)c(C=O)c4)c3n2)c1 has pIC50 of 5.70 to 7.00

The recorded pIC50 for Cc1ccc2nc(-c3cccnc3N)n(-c3ccc4c(c3)CC[C@@H]4NC(=O)c3cc(F)c(O)c(C=O)c3)c2n1 is ≤ 5.70

According to the records, this compound Nc1ncccc1-c1nc2ccc(-c3ncco3)nc2n1-c1ccc2c(c1)CC[C@@H]2NC(=O)c1cc(C=O)c(O)cc1F displays pIC50 of 5.70 to 7.00

The reported value for Nc1ncccc1-c1nc2ccc(-n3cccn3)nc2n1-c1ccc2c(c1)CC[C@@H]2NC(=O)c1cc(C=O)c(O)cc1-n1cccn1 in terms of pIC50 is 5.70 to 7.00

# pIC50 (compound: Nc1ncccc1-c1nc2ccc(-c3ccccc3)nc2n1-c1ccc2c(c1)CC[C@@H]2NC(=O)c1cc(C=O)c2[nH]ncc2c1 ) is 7.00 to 8.00

Given item CS(=O)(=O)Nc1ccc(C(=O)N[C@H]2CCc3cc(-n4c(-c5cccnc5N)nc5ccc(-n6cccn6)nc54)ccc32)cc1C=O , the value recorded as its pIC50 is 5.70 to 7.00

Recorded result, Nc1ncccc1-c1nc2ccc(NC3CC3)nc2n1-c1ccc2c(c1)CC[C@@H]2NC(=O)c1ccc(O)c(C=O)c1 , pIC50: ≤ 5.70

Record summary for Nc1ncccc1-c1nc2ccc(-n3cccn3)nc2n1-c1ccc2c(c1)CC[C@@H]2NC(=O)c1cc(C=O)c(O)c(C(F)(F)F)c1 : reported pIC50 = 5.70 to 7.00

Lookup result for Cc1csc(-c2ccc3nc(-c4cccnc4N)n(-c4ccc5c(c4)CC[C@@H]5NC(=O)c4ccc(O)c(C=O)c4)c3n2)n1 ; measured pIC50: 7.00 to 8.00

// sample Cc1cc(C(=O)N[C@H]2CCc3cc(-n4c(-c5cccnc5N)nc5ccc(-c6ccccc6)nc54)ccc32)cc(C=O)c1O , its pIC50 was ≤ 5.70

Form field pIC50, entry Nc1ncccc1-c1nc2ccc(C(F)(F)F)nc2n1-c1ccc2c(c1)CC[C@@H]2NC(=O)c1ccc(O)c(C=O)c1 : ≤ 5.70

Kindly note the recorded pIC50 for Nc1ncccc1-c1nc2ccc(-n3ccc(Cl)n3)nc2n1-c1ccc2c(c1)CC[C@@H]2NC(=O)c1ccc(O)c(C=O)c1 , which is 5.70 to 7.00

---

Kindly state IC50 for each of the entries shown.
- target_desc: AKT1 WT (Homo sapiens, UniProt P31749)
- Sequence (P31749 whole entry): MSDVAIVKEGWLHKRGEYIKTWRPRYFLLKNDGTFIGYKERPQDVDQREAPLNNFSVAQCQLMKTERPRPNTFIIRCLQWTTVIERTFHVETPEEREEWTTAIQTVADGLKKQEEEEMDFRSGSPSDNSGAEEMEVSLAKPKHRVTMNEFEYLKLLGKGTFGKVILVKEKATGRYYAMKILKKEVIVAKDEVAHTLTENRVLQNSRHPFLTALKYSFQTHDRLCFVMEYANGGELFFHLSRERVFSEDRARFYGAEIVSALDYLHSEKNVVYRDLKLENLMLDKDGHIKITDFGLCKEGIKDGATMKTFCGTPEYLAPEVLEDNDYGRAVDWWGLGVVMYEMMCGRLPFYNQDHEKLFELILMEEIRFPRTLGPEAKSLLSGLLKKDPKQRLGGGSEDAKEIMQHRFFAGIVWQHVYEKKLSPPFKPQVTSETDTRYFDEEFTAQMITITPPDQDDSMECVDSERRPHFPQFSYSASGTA
- procedure_text: Live cell target engagement by NanoBRET competitive probe displacement, AKT1 WT
- condition_set: transfected HEK293 cells, 2 h at 37° C., read-out: AKT1 WT IC50: GeoMean IC50

Measured IC50, Nc1ncccc1-c1nc2ccc(-c3ccccc3)nc2n1-c1ccc2c(c1)CC[C@@H]2NC(=O)Cc1ccc(C=O)c(O)c1Cl : 10 to 100 nM

// field: IC50; key: Nc1ncccc1-c1nc2ccc(Br)nc2n1-c1ccc2c(c1)CC[C@@H]2NC(=O)c1ccc(O)c(C=O)c1 ; value = 100 to 2000 nM

The value of IC50 measured for the compound Nc1ncccc1-c1nc2c(-n3cn[nH]c3=O)cc(-n3cccn3)nc2n1-c1ccc2c(c1)CC[C@@H]2NC(=O)c1ccc(O)c(C=O)c1 turned out to be 100 to 2000 nM

Field IC50 (entry CS(=O)(=O)Nc1cc(-n2cccn2)nc2c1nc(-c1cccnc1N)n2-c1ccc2c(c1)CC[C@@H]2NC(=O)c1ccc(O)c(C=O)c1 ) reads ≥ 2000 nM

The reported IC50 of the compound Nc1ncccc1-c1nc2ccc(-n3cccn3)nc2n1-c1ccc2c(c1)CC[C@@H]2NC(=O)c1cc(F)c(O)c(C=O)c1 was 10 to 100 nM

Nc1ncccc1-c1nc2ccc(-c3ccccc3)nc2n1-c1ccc2c(c1)CC[C@@H]2NC(=O)c1cc(F)c(O)c(C=O)c1 yielded IC50 of 10 to 100 nM

Measured IC50 of COCc1cnn(-c2ccc3nc(-c4cccnc4N)n(-c4ccc5c(c4)CC[C@@H]5NC(=O)c4cc(C=O)c(O)cc4F)c3n2)c1 : 100 to 2000 nM

Kindly note the recorded IC50 for Nc1ncccc1-c1nc2ccc(-c3cc4n(n3)CCC4)nc2n1-c1ccc2c(c1)CC[C@@H]2NC(=O)c1cc(C=O)c(O)cc1F , which is 10 to 100 nM

Lab note: Nc1ncccc1-c1nc2ccc(-c3ccccn3)nc2n1-c1ccc2c(c1)CC[C@@H]2NC(=O)c1ccc(O)c(C=O)c1 gave IC50 of 10 to 100 nM

For record COc1cc(F)c(C(=O)N[C@H]2CCc3cc(-n4c(-c5cccnc5N)nc5ccc(-n6cccn6)nc54)ccc32)cc1C=O the listed IC50 is < 10 nM

// IC50 lookup, compound = Cc1cnc(-c2ccc3nc(-c4cccnc4N)n(-c4ccc5c(c4)CC[C@@H]5NC(=O)c4cc(C=O)c(O)c(F)c4F)c3n2)s1 , result: 10 to 100 nM

In plain terms, Nc1ncccc1-c1nc2ccc(-n3cccn3)nc2n1-c1ccc2c(c1)C(O)C[C@@H]2NC(=O)c1ccc(O)c(C=O)c1 (single isomer, unassigned) has a documented IC50 of 10 to 100 nM

So for Nc1ncccc1-c1nc2ccc(-c3ccccc3)nc2n1-c1ccc2c(c1)CCC2NCCc1ccc(O)c(C=O)c1 (stereo not shown) , the logged IC50 turned out to be ≥ 2000 nM

For record Nc1ncccc1-c1nc2ccc(-n3cccn3)nc2n1-c1ccc2c(c1)CC[C@@H]2NC(=O)c1cc(C=O)c(O)c2ncoc12 the listed IC50 is 100 to 2000 nM

So, Nc1ncccc1-c1nc2ccc(-c3cnccn3)nc2n1-c1ccc2c(c1)CC[C@@H]2NC(=O)c1cc(C=O)c2[nH]ncc2c1 ? Its IC50 was 10 to 100 nM

Form: compound = Nc1ncccc1-c1nc2ccc(-c3ccccc3)nc2n1-c1ccc2c(c1)CC[C@@H]2NC(=O)c1ccc(O)c(C=O)c1 ; IC50 = 10 to 100 nM

// field: IC50; key: Nc1ncccc1-c1nc2ccc(-c3ccccc3)nc2n1-c1ccc2c(c1)CC[C@@H]2NC(=O)c1cnn2ccc(O)c(C=O)c12 ; value = 10 to 100 nM

According to the records, this compound COc1cc(-n2cccn2)nc2c1nc(-c1cccnc1N)n2-c1ccc2c(c1)CC[C@@H]2NC(=O)c1ccc(O)c(C=O)c1 displays IC50 of 10 to 100 nM

Entry Nc1ncccc1-c1nc2ccc(-n3cccn3)nc2n1-c1ccc2c(c1)CC[C@@H]2NC(=O)c1cc(C=O)c(O)c(F)c1F — recorded IC50 = 10 to 100 nM

Documented IC50 of Nc1ncccc1-c1nc2ccc(-c3cc4n(n3)CCOC4)nc2n1-c1ccc2c(c1)CC[C@@H]2NC(=O)c1cc(C=O)c(O)cc1F : 10 to 100 nM

Just so you know, measured IC50 for COc1cncc(-c2ccc3nc(-c4cccnc4N)n(-c4ccc5c(c4)CC[C@@H]5NC(=O)c4ccc(O)c(C=O)c4)c3n2)n1 came out at 10 to 100 nM

Lab note: Nc1ncccc1-c1nc2ccc(-c3ncc[nH]3)nc2n1-c1ccc2c(c1)CC[C@@H]2NC(=O)c1ccc(O)c(C=O)c1 gave IC50 of 100 to 2000 nM

Reference source for all entries: patent US20260053834A1
